Target: HIV-1 protease (Human immunodeficiency virus type 1 group M subtype B, UniProt P04585)
Assay: biochemical
Conditions: read-out: HIV-1 Protease % Inhib, dose 1.000 uM
Experimental Endpoint: inhibition at 1 µM

>>> assay_value("O=c1oc2ccccc2c(O)c1C1CCc2ccccc21 (stereo not shown) [Example 35, 4-hydroxy-3-[1-indanyl]-coumarin]")
"< 10%"
>>> assay_value("O=c1oc2c(c(O)c1C(c1ccccc1)C1CC1)CCCCCC2 (stereo not shown)")
"90.7%"
>>> assay_value("CCC(c1cccc(NC(=O)C2CCCN2C(=O)OC(C)(C)C)c1)c1c(O)c2ccccc2oc1=O (stereo not shown)")
"< 10%"

Query compound follows.
IN: Which inhibition at 1 µM is reported with HIV-1 protease (Human immunodeficiency virus type 1 group M subtype B, UniProt P04585) for this entry: CCC(c1cccc(O)c1)c1c(O)c2ccccc2oc1=O (stereo not shown) ?
OUT: < 10%

###

Could you please report measured inhibition at 10 µM for the items listed next?
Target: HIV-1 protease (Human immunodeficiency virus type 1 group M subtype B, UniProt P04585)
Assay: biochemical
Conditions: read-out: HIV-1 Protease % Inhib, dose 10.000 uM
Answers are plain numbers, in %.

Answered examples (5):
>>> assay_value("CC(C)(C)c1ccc(S(=O)(=O)Nc2cccc(C(c3c(O)c4c(oc3=O)CCCCCC4)C3CC3)c2)cc1 (centres unmarked)")
100
>>> assay_value("CC(C)(c1ccccc1)c1c(O)c2ccccc2oc1=O [Example 39, 3-(α,α-dimethylbenzyl)4-hydroxy coumarin]")
69.6
>>> assay_value("O=c1oc2c(c(O)c1C(c1cccc(NS(=O)(=O)c3ccc(CBr)cc3)c1)C1CC1)CCCCCC2 (centres unmarked)")
95.6
>>> assay_value("O=c1oc2c(c(O)c1C(c1ccccc1)C1CC1)CCCCCC2CC1CCCO1 (single isomer, unassigned)")
107
>>> assay_value("CC(C)C(c1cccc(NS(=O)(=O)c2ccc(Cl)cc2)c1)c1c(O)c2c(oc1=O)CCCCCC2 (centres unmarked)")
102

Give inhibition at 10 µM for each listed item.
1. Cc1cc(C)c2c(c1)C(c1c(O)c3ccccc3oc1=O)CCO2 (centres unmarked)
2. CCC(c1ccc(O)cc1)c1c(O)c2ccccc2oc1=O (centres unmarked)

OUT:
34
31.6

###

Target: HIV-1 protease (Human immunodeficiency virus type 1 group M subtype B, UniProt P04585)
Experiment: biochemical
Conditions: dose 3.300 uM; read-out: HIV-1 Protease % Inhib
Could you please report measured inhibition at 3.3 µM for the items listed next?
Numbers only, in %.

>>> assay_value("O=c1oc2c(c(O)c1C(c1ccccc1)C1CC1)CCCCC2CC1CCCOC1 (centres unmarked) [Example 187]")
68
>>> assay_value("COCCC1CCCCc2c1oc(=O)c(C(c1ccccc1)C1CC1)c2O (centres unmarked) [Example 193]")
70.4
>>> assay_value("Cc1cc(C)c(S(=O)(=O)Nc2cccc(C(c3c(O)c4c(oc3=O)CCCCCC4)C3CC3)c2)c(C)c1 (centres unmarked) [Example 277]")
37.9
>>> assay_value("O=c1oc2c(c(O)c1C(c1ccccc1)C1CC1)CCCCCC2CO (centres unmarked) [Example 173]")
36.5
>>> assay_value("COCCOCCC1CCCCCc2c1oc(=O)c(C(c1ccccc1)C1CC1)c2O (centres unmarked) [Example 172]")
73.5
>>> assay_value("O=c1oc2c(c(O)c1C(c1cccc(NC(=S)Nc3ccccc3)c1)C1CC1)CCCCCC2 (centres unmarked) [Example 366]")
72.9

Give inhibition at 3.3 µM for each listed item.
1. CC(O)CC1CCCCc2c1oc(=O)c(C(c1ccccc1)C1CC1)c2O (centres unmarked) [Example 192]
2. O=C(Nc1ccc(C(c2c(O)c3c(oc2=O)CCCCCC3)C2CC2)cc1)OCc1ccccc1 (centres unmarked) [Example 470]
3. CCCCCCCCCCCCS(=O)(=O)Nc1cccc(C(c2c(O)c3c(oc2=O)CCCCCC3)C2CC2)c1 (centres unmarked) [Example 344]

OUT:
[68.8, 59.2, 32.7]

Give inhibition at 3.3 µM for each listed item.
1. O=c1oc2c(c(O)c1C(c1cccc(NS(=O)(=O)c3c(Cl)cc(Cl)cc3Cl)c1)C1CC1)CCCCCC2 (centres unmarked) [Example 306]
2. O=c1oc2c(c(O)c1C(c1cccc(NS(=O)(=O)c3c(Cl)cccc3Cl)c1)C1CC1)CCCCCC2 (centres unmarked) [Example 295]
3. N#Cc1ccc(S(=O)(=O)NCc2ccc(C(c3c(O)c4c(oc3=O)CCCCCC4)C3CC3)o2)cc1 (centres unmarked) [Example 391]
4. O=C(Nc1cccc(C(c2c(O)c3c(oc2=O)CCCCCC3)C2CC2)c1)c1cccc2ccccc12 (centres unmarked) [Example 212]

OUT:
[53.2, 57, 28.3, 32.5]

These measurements were taken from patent US5686486A.
